Every entry's value here was drawn from patent US20110230478A1.

# MEASUREMENT_DESCRIPTION: logP by HPLC on reversed-phase columns (C 18), EEC Directive 79/831 Annex V.A8
# Format: physicochemical
# SETUP_CONDITIONS: values marked [b]; footnote not given
Below, each of the molecules is paired with its reported logP value.

Here is how some molecules turned out for logP.
>  <MOLECULE>
COCC(Nc1nc(Nc2ccccc2)ncc1Br)C(C)C (centres unmarked) [Example 224]

>  <logP>
2.55[b]

$$$$
>  <MOLECULE>
COCC(C)Nc1nc(Nc2ccc(SC)cc2)ncc1Cl (centres unmarked) [Example 149]

>  <logP>
2.06[b]

$$$$

Lookup: Record request: logP value, item CCOC(=O)Nc1ccc(Nc2ncc(Cl)c(NC(C)C)n2)cc1 [Example 202]
Found: 1.66[b]

Lookup: Another: COCC(C)Nc1nc(Nc2cccc(NC(=O)C3(C)CC3)c2)ncc1Cl (centres unmarked) [Example 162]
Found: 1.78[b]

Lookup: Try COCC(C)Nc1nc(Nc2cccc(NC(=O)Oc3ccccc3)c2)ncc1Cl (centres unmarked) [Example 165] next.
Found: 2.23[b]

* * *

# MEASUREMENT_DESCRIPTION: logP by HPLC on reversed-phase columns (C 18), EEC Directive 79/831 Annex V.A8
# Type: physicochemical
# SETUP_CONDITIONS: values marked [b]; footnote not given
OBSERVED_PROPERTY: logP

Worked examples follow.
>  <COMPOUND>
COCC(C)Nc1nc(Nc2ccc(C(=O)N(C)C)cc2)ncc1Cl (centres unmarked)

>  <OBSERVED_PROPERTY>
logP

>  <RESULT>
1.51[b]

$$$$
>  <COMPOUND>
COCC(C)Nc1nc(Nc2ccc(NC(C)=O)c(OC)c2)ncc1Br (racemic)

>  <OBSERVED_PROPERTY>
logP

>  <RESULT>
1.46[b]

$$$$
>  <COMPOUND>
CNC(=O)c1ccc(Nc2ncc(Cl)c(NC(C)COC)n2)cc1 (racemic)

>  <OBSERVED_PROPERTY>
logP

>  <RESULT>
1.38[b]

$$$$

Lookup: Which value of logP has been reported for COCC(C)Nc1nc(Nc2cccc(C)c2)ncc1Cl (centres unmarked) in the records?
Found: 1.98[b]

Lookup: Another compound: `CN(C)c1nc(Nc2ccccc2)ncc1Br`
Found: 1.86[b]

Lookup: Note, next up: COCC(C)Nc1nc(Nc2cccc(S(=O)(=O)N3CCCCC3)c2)ncc1Cl (centres unmarked)
Found: 2.77[b]

Lookup: Cool, now COCC(C)Nc1nc(Nc2ccc(C)c(NC(C)=O)c2)ncc1Cl (centres unmarked)
Found: 1.37[b]

Lookup: Same again, this time with COCC(Nc1nc(Nc2ccccc2)ncc1Cl)C(C)C (centres unmarked)
Found: 2.33[b]

* * *

# MEASUREMENT_DESCRIPTION: logP by HPLC on reversed-phase columns (C 18), EEC Directive 79/831 Annex V.A8
# Type: physicochemical
# SETUP_CONDITIONS: method marker [b]; footnote not given; compound 68 value matches logP (pH 2.3)
Catalogue of logP values

Reference set, count: 6
>  <MOLECULE>
COCC(C)Nc1nc(Nc2ccc(-c3cscn3)cc2)ncc1Br (stereo not shown)

>  <RESULT>
1.99[b]

$$$$
>  <MOLECULE>
COCC(C)Nc1nc(Nc2ccc3c(c2)OC(F)(F)C(F)(F)O3)ncc1Cl (stereo not shown)

>  <RESULT>
3.85[b]

$$$$
>  <MOLECULE>
COCC(C)Nc1nc(Nc2ccc(CC(=O)OC)cc2)ncc1Cl (stereo not shown)

>  <RESULT>
1.71[b]

$$$$
>  <MOLECULE>
COCC(C)Nc1nc(Nc2ccc3c(c2)OCO3)ncc1Br (stereo not shown)

>  <RESULT>
1.64[b]

$$$$
>  <MOLECULE>
COCC(C)Nc1nc(Nc2cccc(OC(F)(F)F)c2)ncc1Cl (stereo not shown)

>  <RESULT>
3.14[b]

$$$$
>  <MOLECULE>
COCC(C)Nc1nc(Nc2ccc3c(c2)CCC3=O)ncc1Cl (stereo not shown)

>  <RESULT>
1.97[b]

$$$$

Lookup: Endpoint output: logP of COCC(C)Nc1nc(Nc2ccc3oc(=O)sc3c2)ncc1Cl (stereo not shown) . Value?
Found: 2.11[b]

Lookup: Subsequent entry: COCC(C)Nc1nc(Nc2cccc(S(=O)(=O)N(C)C)c2)ncc1Cl (stereo not shown)
Found: 2.18[b]

Lookup: Param item: COCC(C)Nc1nc(Nc2cccc(Cl)c2)ncc1Br (stereo not shown)
Found: 2.82[b]

Lookup: Would you mind doing COCC(C)Nc1nc(Nc2cccc(OC)c2)ncc1Br (stereo not shown) as well?
Found: 1.9[b]

* * *

# MEASUREMENT_DESCRIPTION: logP by HPLC on reversed-phase columns (C 18), EEC Directive 79/831 Annex V.A8
# Assay type: physicochemical
# SETUP_CONDITIONS: method marker [b]; footnote not given; compound 68 value matches logP (pH 2.3)
Reported logP is given for each of the following compounds.

Observe how each entry below is paired with its result.
>  <COMPOUND>
COCC(C)Nc1nc(Nc2ccc(SC)c(Cl)c2)ncc1Br (stereo not shown)

>  <logP>
2.99[b]

$$$$
>  <COMPOUND>
COCC(C)Nc1nc(Nc2cc(Cl)cc(Cl)c2)ncc1Br (stereo not shown)

>  <logP>
4.32[b]

$$$$

Lookup: Fill in: logP of COCC(C)Nc1nc(Nc2ccc(S(=O)(=O)N(C)C)cc2)ncc1Cl (stereo not shown) is ___
Found: 2.26[b]

* * *

# MEASUREMENT_DESCRIPTION: logP by HPLC on reversed-phase columns (C 18), EEC Directive 79/831 Annex V.A8
# Format: physicochemical
# SETUP_CONDITIONS: method marker [a]; footnote not given
OBSERVED_PROPERTY: logP

Lookup: Return reported logP; argument: `COc1cc(Nc2ncc(Cl)c(NCCO)n2)cc(OC)c1.Cl`
Found: 1.26[a]

Lookup: Also CCC(CO)Nc1nc(Nc2cc(OC)cc(OC)c2)ncc1Cl (stereo not drawn) ?
Found: 1.64[a]

Lookup: Record: `COCCNc1nc(Nc2ccc(N3CCN(C(=O)OC(C)(C)C)CC3)cc2)ncc1Cl`
Found: 2.05[a];

Lookup: CCC(C)N(C)c1nc(Nc2cccc(C(C)=O)c2)ncc1Cl.Cl (stereo not drawn) , same question.
Found: 2.88[a]

Lookup: Same question, COCC(C)Nc1nc(Nc2cccc(S(=O)(=O)N(C)C)c2)ncc1Cl (stereo not drawn) this time
Found: 2.02[a];

Lookup: Try the molecule `COCCNc1nc(Nc2cccc(C(C)=O)c2)ncc1Cl`
Found: 1.49[a];

Lookup: Next record, please: CCC(CO)Nc1nc(Nc2ccccc2)ncc1Cl (stereo not drawn)
Found: 1.41[a]

Lookup: Same read-out for CCC(C)N(C)c1nc(Nc2cccc(S(=O)(=O)N(C)C)c2)ncc1Cl (stereo not drawn) ?
Found: 3.33[a]

Lookup: Also `CC(=O)c1cccc(Nc2ncc(Cl)c(NC(C)C)n2)c1.Cl` , if possible.
Found: 1.79[a]

* * *

# MEASUREMENT_DESCRIPTION: logP by HPLC on reversed-phase columns (C 18), EEC Directive 79/831 Annex V.A8
# Format: physicochemical
# SETUP_CONDITIONS: method marker [b]; footnote not given; compound 68 value matches logP (pH 2.3)
This listing pairs compounds with measured logP.

Lookup: Request the reported logP associated with CCC(=O)c1ccc(Nc2ncc(Cl)c(NC(C)COC)n2)cc1 (stereo not shown)
Found: 2.36[b]

Lookup: Further, for `COCCNc1nc(Nc2cc(OC)c(OC)c(OC)c2)ncc1Cl` ?
Found: 1.45[b]

Lookup: Next up: COCC(C)Nc1nc(Nc2ccc(OC(F)(F)F)c(Cl)c2)ncc1Cl (stereo not shown)
Found: 3.99[b]

Lookup: Okay, and COCC(C)Nc1nc(Nc2ccc3c(c2)CCN3C(C)=O)ncc1Cl (stereo not shown) ?
Found: 1.48[b]

Lookup: # repeat for COCC(C)Nc1nc(Nc2cccc(SC)c2)ncc1Cl (stereo not shown)
Found: 2.13[b]

Lookup: Next compound up: `CN(C)c1nc(Nc2ccccc2)ncc1C#N`
Found: 2.36[b]

Lookup: Same question, `COCCNc1nc(Nc2ccc(S(=O)(=O)N(C)C)cc2)ncc1Cl` this time
Found: 1.9[b]

Lookup: Could you do the same for COCC(C)Nc1nc(Nc2cccc(S(=O)(=O)N3CCOCC3)c2)ncc1Br (stereo not shown) , please?
Found: 2.16[b]

Lookup: Try this compound too: COCC(C)Nc1nc(Nc2ccc3sc(C)nc3c2)ncc1Cl (stereo not shown)
Found: 1.75[b]

Lookup: How about this compound: COCC(C)Nc1nc(Nc2ccc(C(=O)OC)c(Cl)c2)ncc1Br (stereo not shown)
Found: 3.14[b]

* * *

// logP lookup, one value per entry
# MEASUREMENT_DESCRIPTION: logP by HPLC on reversed-phase columns (C 18), EEC Directive 79/831 Annex V.A8
# Assay type: physicochemical
# SETUP_CONDITIONS: values marked [b]; footnote not given

Record excerpt, results attached:
>  <COMPOUND>
CCNc1nc(Nc2cccc(SC)c2)ncc1Cl

>  <logP>
1.92[b]

$$$$
>  <COMPOUND>
COCC(C)Nc1nc(Nc2ccc(NC(=O)C(C)C)cc2)ncc1Cl (stereo not drawn)

>  <logP>
1.59[b]

$$$$
>  <COMPOUND>
COCC(C)Nc1nc(Nc2ccc(OC(F)(F)C(F)F)cc2)ncc1Cl (stereo not drawn)

>  <logP>
2.61[b]

$$$$
>  <COMPOUND>
COCC(C)Nc1nc(Nc2cccc(NC(=O)C(C)(C)CF)c2)ncc1Cl (stereo not drawn)

>  <logP>
1.83[b]

$$$$

Lookup: Sample `CCOC(=O)Nc1cccc(Nc2ncc(Cl)c(NC(C)C)n2)c1` — what was its logP?
Found: 1.81[b]

Lookup: How about this compound: COCC(C)Nc1nc(Nc2cccc(C(=O)NC(C)(C)C)c2)ncc1Cl (stereo not drawn)
Found: 1.99[b]

Lookup: Now try CCOC(=O)Nc1cccc(Nc2ncc(Br)c(NC(C)COC)n2)c1 (racemic) .
Found: 1.87[b]

Lookup: Try this compound next: COCC(C)Nc1nc(Nc2ccc(C(C)=O)cc2)ncc1Cl (stereo not drawn)
Found: 2.02[b]

Lookup: Would you kindly repeat that for `CC(=O)Nc1cccc(Nc2ncc(Cl)c(NC(C)C)n2)c1` ?
Found: 1.39[b]
